# EXPERIMENTAL_TARGET: T1, hen egg-white lysozyme (hen, UniProt P00698 19-147)
# T1 construct: also called HEL
# T1 sequence (P00698 19-147): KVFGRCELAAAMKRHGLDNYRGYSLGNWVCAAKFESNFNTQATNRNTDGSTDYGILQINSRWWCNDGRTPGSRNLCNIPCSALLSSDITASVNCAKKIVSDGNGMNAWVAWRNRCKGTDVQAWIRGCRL
# TEST_PROTOCOL: Biacore kinetics, HEL immobilised; Kd' = koff/kon
READOUT_NAME: pKd
For clarity, pKd is expressed as the negative log10 of concentration in mol/L.

Solved entries:
# BINDER, ENDPOINT_RESULT
rows = [
    ("H4S cysteine mutant W8C (not conjugated) (designed binder, Free cysteine mutant, measured in reducing conditions) MRGSHHHHHHGSVKVKFFCNGEEKEVDTSKIVWVKRAGKSVLFIYDDNGKNGYGDVTEKDAPKELLDMLARAEREKKLN", 7.17),
    ("H4S cysteine mutant A26C (not conjugated) (designed binder, Free cysteine mutant, measured in reducing conditions) MRGSHHHHHHGSVKVKFFWNGEEKEVDTSKIVWVKRCGKSVLFIYDDNGKNGYGDVTEKDAPKELLDMLARAEREKKLN", 7.22),
]

Which pKd value belongs to H4S(wt) (designed binder, Nanofitin derived from Sac7d (Sulfolobus acidocaldarius), H4 with Cys29 changed into Ser29; His-tagged; also called H4S protein; parental Nanofitin H4S(wt)) MRGSHHHHHHGSVKVKFFWNGEEKEVDTSKIVWVKRAGKSVLFIYDDNGKNGYGDVTEKDAPKELLDMLARAEREKKLN ?
7.51

Another: H4S cysteine mutant K39C (not conjugated) (designed binder, Free cysteine mutant, measured in reducing conditions) MRGSHHHHHHGSVKVKFFWNGEEKEVDTSKIVWVKRAGKSVLFIYDDNGCNGYGDVTEKDAPKELLDMLARAEREKKLN
7.42

Would you kindly repeat that for H4S(K24C) (not conjugated) (designed binder, Free cysteine mutant, measured in reducing conditions) MRGSHHHHHHGSVKVKFFWNGEEKEVDTSKIVWVCRAGKSVLFIYDDNGKNGYGDVTEKDAPKELLDMLARAEREKKLN ?
6.93

Could you do the same for H4S cysteine mutant V21C (not conjugated) (designed binder, Free cysteine mutant, measured in reducing conditions) MRGSHHHHHHGSVKVKFFWNGEEKEVDTSKICWVKRAGKSVLFIYDDNGKNGYGDVTEKDAPKELLDMLARAEREKKLN , please?
6.48
